Test system: Raji Burkitt's lymphoma cells (s.c. xenograft)
TEST: Raji s.c. xenograft model (solid tumor), tumor volume
Type: in vivo, CB17 SCID mice
CONDITION INFO: anti-CD19 conjugate; grade, key not given
Experimental: Raji xenograft model: Female CB17 SCID mice were inoculated with 2.5×10^6 Raji Burkitt's lymphoma cells per mouse subcutaneously in the right flank. At a mean tumor vol. of ˜80 mm^3, animals were allocated to groups on day 0. On the same day the animals received a single intravenous dose of amanitin based anti-CD19 antibody drug conjugates (ADCs) Tumor volume and body weight were determined twice per week. Tumor growth was monitored by caliper measurement. […]

COMPOUND	Efficacy Raji sc
CC[C@H](C)[C@@H]1NC(=O)CNC(=O)[C@@H]2Cc3c([nH]c4cc(O)ccc34)[S@+]([O-])CC(NC(=O)CNC1=O)C(=O)N[C@@H](CC(=O)NCc1ccc(NC(=O)[C@H](C)NC(=O)C(NC(=O)CCN3C(=O)C=CC3=O)C(C)C)cc1)C(=O)CN1CC(O)C[C@H]1C(=O)N[C@@H]([C@@H](C)[C@@H](O)CO)C(=O)N2 (stereo partly shown)	∘

Measured values drawn from patent US12544419B2 for this set.
